System: Pseudomonas aeruginosa
Format: cell-based
Residues, ends and D or L forms follow the SMILES beside them.
measurementName: MIC P. aeruginosa (µg/mL)
Just the number in µg/mL, nothing appended.

compound="CC[C@H](C)[C@H](NC(=O)[C@H](C)NC(=O)[C@H](CC(C)C)NC(=O)[C@H](CC(C)C)NC(=O)[C@H](Cc1c[nH]c2ccccc12)NC(=O)[C@H](C)N)C(=O)N[C@@H](CCCNC(=N)N)C(=O)N[C@@H](CCCCN)C(=O)N[C@@H](CCCNC(=N)N)C(N)=O [present peptide (3), Ala-Trp-Leu-Leu-Ala-Ile-Arg-Lys-Arg-NH2] (H-AWLLAIRKR-NH2; N-terminus assumed)" experimentalsystem="Pseudomonas aeruginosa" readoutnumber=4

Tell me reported MIC P. aeruginosa for CC[C@H](C)[C@H](NC(=O)[C@H](C)NC(=O)[C@H](CC(C)C)NC(=O)[C@H](CC(C)C)NC(=O)[C@H](CC(C)C)NC(=O)[C@H](C)N)C(=O)N[C@@H](CCCNC(=N)N)C(=O)N[C@@H](CCCCN)C(=O)N[C@@H](CCCNC(=N)N)C(N)=O [present peptide (2), Ala-Leu-Leu-Leu-Ala-Ile-Arg-Lys-Arg-NH2] (H-ALLLAIRKR-NH2; N-terminus assumed) , tested with Pseudomonas aeruginosa.
4
